System: KRAS PDC multicell spheroid viability;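 also: spheroids exposed to compounds for 7 days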
Assay: Anticancer human tumor 825966-067-R-J1-PDC patient-derived colon carcinoma cell line growth inhibition [KRAS2]
Conditions: second compound 10 µM; first compound 0.316 µM; stronger effect = lower value
Could you please mark condition met for values of viability, T/C below 10% and condition not met for values at or above it?

Prompt: Just wondering, is viability, T/C of O=C(c1cc(Cc2n[nH]c(=O)c3ccccc23)ccc1F)N1CCN(C(=O)C2CC2)CC1 + C=CC(=O)N1CCN(c2nc(=O)n(-c3c(C)ccnc3C(C)C)c3nc(-c4c(O)cccc4F)c(F)cc23)C(C)C1 below 10%?
Response: condition not met

Prompt: Here's an entry: CC(=O)OC12COC1CC(O)C1(C)C(=O)C(O)C3=C(C)C(OC(=O)C(O)C(NC(=O)OC(C)(C)C)c4ccccc4)CC(O)(C(OC(=O)c4ccccc4)C21)C3(C)C (stereo not given) + CNCc1ccccc1-c1csc(C(C)Nc2nc(C)nc3cc(OC)c(OC)cc23)c1 . Is its viability, T/C below 10%?
Response: condition met

Prompt: For this compound, is viability, T/C lower than 10%? CC1(C)CCC(CN2CCN(c3ccc(C(=O)NS(=O)(=O)c4ccc(NCC5CCOCC5)c([N+](=O)[O-])c4)c(Oc4cnc5[nH]ccc5c4)c3)CC2)=C(c2ccc(Cl)cc2)C1 + CC1OCC2(CCN(c3cnc(Sc4ccnc(N)c4Cl)c(N)n3)CC2)C1N
Response: condition not met

Prompt: Determine if CC(=O)OC12COC1CC(O)C1(C)C(=O)C(O)C3=C(C)C(OC(=O)C(O)C(NC(=O)OC(C)(C)C)c4ccccc4)CC(O)(C(OC(=O)c4ccccc4)C21)C3(C)C (stereo not given) + COc1cc2nc(C)nc(NC(C)c3cc(N)cc(C(F)(F)F)c3)c2cc1OC1CCOC1 shows viability, T/C strictly lower than 10%.
Response: condition not met

Prompt: Please indicate whether the reported viability, T/C of Cn1nccc1Nc1nccc(-c2cc3c(s2)C(C)(C)N(CCN2CCOCC2)C3=O)n1 + CC1OCC2(CCN(c3cnc(Sc4ccnc(N)c4Cl)c(N)n3)CC2)C1N is strictly below 10%.
Response: condition not met

Prompt: I'd appreciate it if you could check whether CCNC(=O)CC1N=C(c2ccc(Cl)cc2)c2cc(OC)ccc2-n2c(C)nnc21 (stereo not given) + C=CC(=O)N1CCN(c2nc(=O)n(-c3c(C)ccnc3C(C)C)c3nc(-c4c(O)cccc4F)c(F)cc23)C(C)C1 has viability, T/C smaller than 10%.
Response: condition not met

Prompt: viability, T/C strictly < 10% for this compound? CC1COCCN1c1cc(-c2ccnn2C)c2ccnc(-c3ccn[nH]3)c2n1 (stereo not given) + CC1OCC2(CCN(c3cnc(Sc4ccnc(N)c4Cl)c(N)n3)CC2)C1N
Response: condition not met

Prompt: Is it true that viability, T/C reported for CC1COCCN1c1cc(-c2ccnn2C)c2ccnc(-c3ccn[nH]3)c2n1 (stereo not given) + C=CC(=O)N1CCN(c2nc(=O)n(-c3c(C)ccnc3C(C)C)c3nc(-c4c(O)cccc4F)c(F)cc23)C(C)C1 is less than 10%?
Response: condition not met

Prompt: Does this compound meet the criterion viability, T/C < 10%? COC(=O)c1ccc2c(C(=Nc3ccc(N(C)C(=O)CN4CCN(C)CC4)cc3)c3ccccc3)c(O)[nH]c2c1 + COc1cc2nc(C)nc(NC(C)c3cc(N)cc(C(F)(F)F)c3)c2cc1OC1CCOC1
Response: condition met

Prompt: Dear reviewer, please state whether CC(C)NCC(C(=O)N1CCN(c2ncnc3c2C(C)CC3O)CC1)c1ccc(Cl)cc1 (stereo not given) + C=CC(=O)N1CCN(c2nc(=O)n(-c3c(C)ccnc3C(C)C)c3nc(-c4c(O)cccc4F)c(F)cc23)C(C)C1 has viability, T/C strictly beneath 10%.
Response: condition not met
